tested on: Leishmania infantum; assay: Antileishmanial activity against Leishmania infantum MHOM/MA(BE)/67 amastigotes in mouse peritoneal macrophages; assay type: functional, organism-based
pIC50: −log10 of the molar value.
Observable: pIC50

// worked examples, pIC50 included
>  <Molecule>
CC1=C[C@H](c2cc(O)c3c(=O)c4cccc(O)c4oc3c2O)[C@](C)(/C=C/c2cc(O)c3c(=O)c4cccc(O)c4oc3c2O)CC1 [GARCILIVIN A]

>  <Val>
4.49

$$$$
>  <Molecule>
COc1ccc([C@@H]2CC(=O)c3c(O)cc(O)c([C@@H]4C(=O)c5c(O)cc(O)cc5O[C@H]4c4ccc(O)cc4)c3O2)cc1

>  <Val>
< 4.19

$$$$
>  <Molecule>
CC(C)=CCCC1(C)C=Cc2c(cc(O)c3c(=O)c4cccc(O)c4oc23)O1 (stereo unspecified)

>  <Val>
< 4.19

$$$$
>  <Molecule>
CC(C)=CCc1cc(O)c2c(=O)c3cccc(O)c3oc2c1O

>  <Val>
4.57

$$$$
>  <Molecule>
CC1=C[C@@H](c2cc(O)c3c(=O)c4cccc(O)c4oc3c2O)[C@](C)(/C=C/c2cc(O)c3c(=O)c4cccc(O)c4oc3c2O)CC1 [GARCIVILIN C]

>  <Val>
< 4.19

$$$$

# next molecule below
Req: Value wanted: pIC50 (Leishmania infantum) of entry "CC(C)=CCC/C(C)=C/Cc1c(O)cc(O)c2c(=O)c3cccc(O)c3oc12"
Resp: < 4.19

====

system: Plasmodium falciparum; test: Antiplasmodial activity against chloroquine-sensitive Plasmodium falciparum Ghana by LDH reporter assay; type: functional, organism-based
IC50 for assorted compounds
Enter your answer as a number in µM; do not include the unit.

Observe how each entry below is paired with its result.
>  <Compound>
CC1=C[C@H](c2cc(O)c3c(=O)c4cccc(O)c4oc3c2O)[C@](C)(/C=C/c2cc(O)c3c(=O)c4cccc(O)c4oc3c2O)CC1

>  <IC50 / µM>
6.7

$$$$
>  <Compound>
CC(C)=CCCC1(C)C=Cc2c(cc(O)c3c(=O)c4cccc(O)c4oc23)O1 (stereo unspecified)

>  <IC50 / µM>
52

$$$$
>  <Compound>
CC(C)=CCc1cc(O)c2c(=O)c3cccc(O)c3oc2c1O

>  <IC50 / µM>
10

$$$$
>  <Compound>
CC(C)=CCC/C(C)=C/Cc1c(O)cc(O)c2c(=O)c3cccc(O)c3oc12

>  <IC50 / µM>
59

$$$$

Req: Which IC50 value belongs to "COc1ccc([C@@H]2CC(=O)c3c(O)cc(O)c([C@@H]4C(=O)c5c(O)cc(O)cc5O[C@H]4c4ccc(O)cc4)c3O2)cc1" ?
Resp: 6

====

system: MRC5; assay: Cytotoxicity against human MRC5 cells by alamar-blue assay; type: cell-based
Let's look at some compounds and their measured IC50.
Respond numerically; units are µM and should not be typed.

>  <Smiles>
COc1ccc([C@@H]2CC(=O)c3c(O)cc(O)c([C@@H]4C(=O)c5c(O)cc(O)cc5O[C@H]4c4ccc(O)cc4)c3O2)cc1

>  <Observable>
IC50

>  <Units>
µM

>  <Val>
38

$$$$
>  <Smiles>
CC1=C[C@@H](c2cc(O)c3c(=O)c4cccc(O)c4oc3c2O)[C@](C)(/C=C/c2cc(O)c3c(=O)c4cccc(O)c4oc3c2O)CC1

>  <Observable>
IC50

>  <Units>
µM

>  <Val>
52.3

$$$$

Now examine the next entry.
Req: // map "CC1=C[C@H](c2cc(O)c3c(=O)c4cccc(O)c4oc3c2O)[C@](C)(/C=C/c2cc(O)c3c(=O)c4cccc(O)c4oc3c2O)CC1" to recorded IC50 (system: MRC5)
Resp: 2

====

system: MRC5; test: Cytotoxicity against human MRC5 cells by alamar-blue assay; type: cell-based
Observable: IC50

>  <Molecule>
CC(C)=CCc1cc(O)c2c(=O)c3cccc(O)c3oc2c1O

>  <Target>
MRC5

>  <Val>
> 32 µM

$$$$

Req: Look up IC50: CC(C)=CCCC1(C)C=Cc2c(cc(O)c3c(=O)c4cccc(O)c4oc23)O1 (centres undefined)
Resp: > 64 µM

Req: Quick check: IC50 of O=C1c2c(O)cc(O)cc2O[C@H](c2ccc(O)cc2)[C@H]1c1c(O)cc(O)c2c(=O)cc(-c3ccc(O)c(O)c3)oc12 [MORELLOFLAVONE] ?
Resp: > 64 µM

Req: I have this molecule here, "CC(C)=CCC/C(C)=C/Cc1c(O)cc(O)c2c(=O)c3cccc(O)c3oc12" , and I need its recorded IC50.
Resp: > 64 µM

Reference source: ChEMBL document CHEMBL1157289
